Here, each record is paired with measured Dmax data.
Study Target: p300 (Homo sapiens, UniProt Q09472)
Construct: host or cells: A549 P300 HiBit cells
Sequence (Q09472 whole entry): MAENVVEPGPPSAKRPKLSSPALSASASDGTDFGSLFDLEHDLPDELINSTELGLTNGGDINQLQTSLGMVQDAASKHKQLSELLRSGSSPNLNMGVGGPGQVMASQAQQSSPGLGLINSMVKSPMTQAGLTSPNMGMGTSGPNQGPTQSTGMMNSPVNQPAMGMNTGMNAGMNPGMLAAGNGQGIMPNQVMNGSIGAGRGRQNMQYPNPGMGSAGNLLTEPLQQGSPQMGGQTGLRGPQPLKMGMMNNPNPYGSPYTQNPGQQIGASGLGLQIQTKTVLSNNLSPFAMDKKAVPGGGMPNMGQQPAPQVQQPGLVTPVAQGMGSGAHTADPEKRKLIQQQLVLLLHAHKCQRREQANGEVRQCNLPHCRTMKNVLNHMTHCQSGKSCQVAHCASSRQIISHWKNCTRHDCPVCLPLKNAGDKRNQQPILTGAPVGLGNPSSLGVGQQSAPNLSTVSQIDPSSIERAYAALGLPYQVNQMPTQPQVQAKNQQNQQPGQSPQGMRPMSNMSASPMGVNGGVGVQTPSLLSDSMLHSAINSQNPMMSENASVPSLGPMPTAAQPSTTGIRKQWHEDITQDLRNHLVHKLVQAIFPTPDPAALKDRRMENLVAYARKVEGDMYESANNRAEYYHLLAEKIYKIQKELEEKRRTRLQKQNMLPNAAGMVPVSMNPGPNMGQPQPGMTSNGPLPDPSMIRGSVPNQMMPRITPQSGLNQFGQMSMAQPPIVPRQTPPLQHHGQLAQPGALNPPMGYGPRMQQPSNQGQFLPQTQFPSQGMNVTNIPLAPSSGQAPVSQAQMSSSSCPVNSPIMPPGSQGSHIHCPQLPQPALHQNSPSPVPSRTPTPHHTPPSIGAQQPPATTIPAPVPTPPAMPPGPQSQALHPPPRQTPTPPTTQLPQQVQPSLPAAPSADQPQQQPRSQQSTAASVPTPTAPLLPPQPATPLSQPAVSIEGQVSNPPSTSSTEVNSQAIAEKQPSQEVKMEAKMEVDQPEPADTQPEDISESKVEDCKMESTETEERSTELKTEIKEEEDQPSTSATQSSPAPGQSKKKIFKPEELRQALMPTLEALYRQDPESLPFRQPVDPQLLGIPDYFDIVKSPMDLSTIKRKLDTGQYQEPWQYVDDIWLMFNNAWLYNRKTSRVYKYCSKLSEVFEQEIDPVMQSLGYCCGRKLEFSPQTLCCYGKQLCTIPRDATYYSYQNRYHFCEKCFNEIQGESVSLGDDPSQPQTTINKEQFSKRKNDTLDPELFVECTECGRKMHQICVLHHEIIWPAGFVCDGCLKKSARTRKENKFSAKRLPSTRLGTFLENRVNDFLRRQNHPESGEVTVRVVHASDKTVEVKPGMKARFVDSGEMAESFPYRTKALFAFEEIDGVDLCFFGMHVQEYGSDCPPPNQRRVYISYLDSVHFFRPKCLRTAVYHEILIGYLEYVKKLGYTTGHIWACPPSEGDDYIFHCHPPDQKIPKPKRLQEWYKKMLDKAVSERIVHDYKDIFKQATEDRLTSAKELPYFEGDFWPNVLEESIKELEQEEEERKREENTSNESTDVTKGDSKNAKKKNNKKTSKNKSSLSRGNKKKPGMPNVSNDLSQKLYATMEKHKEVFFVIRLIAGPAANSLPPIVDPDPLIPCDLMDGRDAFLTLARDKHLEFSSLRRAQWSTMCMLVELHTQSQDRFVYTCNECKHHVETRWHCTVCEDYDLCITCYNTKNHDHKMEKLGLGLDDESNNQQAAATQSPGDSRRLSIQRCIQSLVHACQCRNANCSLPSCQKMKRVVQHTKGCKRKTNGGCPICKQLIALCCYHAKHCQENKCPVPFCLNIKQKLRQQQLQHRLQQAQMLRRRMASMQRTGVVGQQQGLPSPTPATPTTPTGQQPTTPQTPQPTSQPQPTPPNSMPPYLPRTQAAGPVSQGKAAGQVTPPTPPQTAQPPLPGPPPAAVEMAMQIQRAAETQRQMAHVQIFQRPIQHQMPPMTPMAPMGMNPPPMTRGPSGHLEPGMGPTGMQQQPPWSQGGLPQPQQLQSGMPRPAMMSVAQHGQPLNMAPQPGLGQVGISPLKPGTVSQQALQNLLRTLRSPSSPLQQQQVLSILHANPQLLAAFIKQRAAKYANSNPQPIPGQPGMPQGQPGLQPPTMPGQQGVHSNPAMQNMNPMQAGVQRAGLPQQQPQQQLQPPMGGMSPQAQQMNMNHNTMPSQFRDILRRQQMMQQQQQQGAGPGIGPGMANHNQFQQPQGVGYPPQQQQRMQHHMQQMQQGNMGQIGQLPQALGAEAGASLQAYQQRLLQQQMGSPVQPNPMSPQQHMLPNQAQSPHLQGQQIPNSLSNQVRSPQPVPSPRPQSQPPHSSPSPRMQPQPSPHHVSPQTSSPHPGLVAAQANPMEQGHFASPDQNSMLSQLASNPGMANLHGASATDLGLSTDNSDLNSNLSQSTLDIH
Assay Notes: P300 degradation, HiBit technology in A549 P300 HiBit cells (2 h)
Format: cell-based
Applied Conditions: A549, A549 P300 HiBit cells, 2 hrs post treatment

Compound	Metric Name	Result
Cc1cc2c(N3CCCc4nc(-c5ccc(C(=O)NCC#Cc6ccc7occ(C8CCC(=O)NC8=O)c7c6)nc5)ccc43)cc(C3CCOCC3)cc2n(C)c1=O (centres unmarked) [Example B127]	Dmax	> 80%

Query: Report Dmax for Cc1cc2c(N3CCN(C)c4cc(-c5ccc(C(=O)NCC#Cc6cc7c(C8CCC(=O)NC8=O)cccc7o6)nc5)ncc43)cccc2n(C)c1=O (centres unmarked) [Example B114]
Reply: > 80%

Query: Name the recorded Dmax of the compound listed here: Cc1cc(-c2ncc(N(C)c3cc(N4CCOCC4)c4oc(=O)n(C)c4c3)cn2)cnc1C(=O)NCC#Cc1ccc2occ(C3CCC(=O)NC3=O)c2c1 (centres unmarked) [Example A80]
Reply: < 20%

Query: Fill in reported Dmax for this entry: CCC(=O)N1CCC(c2cc(N3CCCc4nc(-c5ccc(C(=O)NCC#Cc6ccc7occ(C8CCC(=O)NC8=O)c7c6)nc5)ncc43)c3cc(C)c(=O)n(C)c3c2)CC1 (centres unmarked) [Example B52]
Reply: > 80%

Query: Determine from records and report Dmax for Cn1c(=O)n(C)c2c(C3CCOCC3)nc(-c3cccc4cc(-c5ccc(C(=O)NCC#Cc6ccc7occ(C8CCC(=O)NC8=O)c7c6)nc5)ncc34)cc21 (centres unmarked) [Example A135]
Reply: > 80%

Query: Dear colleague, please send me the reported Dmax for Cn1c(=O)n(C)c2cc(C3=CC(C)(C)Oc4cc(-c5ccc(C(=O)NCC#Cc6cc7c(C8CCC(=O)NC8=O)cccc7o6)nc5)ncc43)ccc21 (centres unmarked) [Example A259] when you can.
Reply: > 80%

The reported measurements were obtained from patent US20250114345A1.
